Biological target: aromatase (human placental microsomes) (Homo sapiens, UniProt P11511)
Construct: Microsomes were obtained from the remaining tissue as described
Assay: Noncellular, enzyme-based, microsomal aromatase bioassay
Details: six concentrations 1-100 μM
Quantity: IC50 (µM)

INSERT INTO assay_data (compound, quantity, output_unit, observed_result) VALUES
  ('COc1c(O)cc2oc3cc(O)c(CC=C(C)C)c(O)c3c(=O)c2c1CC=C(C)C [Compound 10, α-mangostin]', 'IC50', 'µM', 20.7);

---

Recorded CD (concentration required to double QR induction activity) by entry
System: quinone reductase
Test: Quinone reductase (QR) induction assay in Hepa 1c1c7 cells
Type: cell-based, murine
Quantity: CD (concentration required to double QR induction activity) (µg/mL)

INSERT INTO results (compound, observed_result) VALUES
  ('COc1c(O)cc2oc3cc4c(c(O)c3c(=O)c2c1CC=C(C)C)C=CC(C)(C)O4 [Compound 24, mangostanin]', 0.95),
  ('CC(C)=CCc1c(O)cc2oc3ccc(O)c(CC=C(C)C)c3c(=O)c2c1O [Compound 23]', 0.68),
  ('CC(C)=CCc1c(O)ccc2oc3cc4c(c(O)c3c(=O)c12)CC(C(C)(C)O)O4 (centres unmarked) [Compound 22]', 2.2),
  ('CC(C)=CCc1c(O)cc2oc3ccc4c(c3c(=O)c2c1O)C(O)C(C(C)(C)O)O4 (centres unmarked) [Compound 21]', 1.3),
  ('O=C(/C=C/c1ccc(O)cc1)c1ccc(O)cc1O [isoliquiritigenin, reference compound]', 1.1);

---

Molecular target: aromatase (human placental microsomes) (Homo sapiens)
Construct: Microsomes were obtained from the remaining tissue as described; from tissue; host or cells: human term placenta (microsomal fraction)
Sequence (P11511 1-503): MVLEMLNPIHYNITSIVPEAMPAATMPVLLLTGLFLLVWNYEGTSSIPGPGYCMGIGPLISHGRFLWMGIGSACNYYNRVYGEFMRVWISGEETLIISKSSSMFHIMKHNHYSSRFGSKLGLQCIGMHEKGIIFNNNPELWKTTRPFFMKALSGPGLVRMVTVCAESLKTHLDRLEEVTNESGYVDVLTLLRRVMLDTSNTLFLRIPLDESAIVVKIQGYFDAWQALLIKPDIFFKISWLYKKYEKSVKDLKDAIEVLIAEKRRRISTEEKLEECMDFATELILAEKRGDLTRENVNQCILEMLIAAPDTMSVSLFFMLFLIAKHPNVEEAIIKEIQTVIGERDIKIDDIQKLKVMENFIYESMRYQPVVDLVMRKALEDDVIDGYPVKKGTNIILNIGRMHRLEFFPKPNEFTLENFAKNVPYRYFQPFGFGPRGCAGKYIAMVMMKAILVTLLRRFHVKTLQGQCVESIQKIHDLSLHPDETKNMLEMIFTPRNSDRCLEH
Experiment: Noncellular, enzyme-based, microsomal aromatase bioassay;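 also: aromatase activity read as tritiated water release by scintillation counting after 15 min at 37 °C, relative to DMSO vehicle, with boiled microsomes giving background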
Assay type: biochemical
Settings: 20 μg/mL; percent control activity
Threshold check on Noncellular Bioassay PCA 20 μg/mL: at or above 20 PCA gives 1.0, strictly below gives 0.0.

INSERT INTO assay_data (compound, class) VALUES
  ('COc1c(O)cc2oc3cc(O)c(CC=C(C)C)c(O)c3c(=O)c2c1CCC(C)(C)O [Compound 6, garcinone D]', 0.0),
  ('CC(C)=CCC/C(C)=C/Cc1c(O)cc2oc3c(O)ccc(O)c3c(=O)c2c1O [Compound 13, smeathxanthone A]', 1.0),
  ('CC(C)=CCc1c(O)cc2oc3cc(O)c(O)c(CC=C(C)C)c3c(=O)c2c1O [Compound 11, γ-mangostin]', 0.0),
  ('CC(C)=CCC/C(C)=C/Cc1c(O)cc2oc3c(O)cccc3c(=O)c2c1O [Compound 12, mangostinone]', 1.0),
  ('CC(C)=CCc1c(O)cc2oc3c(CC=C(C)C)c(O)c4c(c3c(=O)c2c1O)C=CC(C)(C)O4 [Compound 14, tovophyllin A]', 1.0),
  ('CC(C)=CCc1c(O)c(CC=C(C)C)c2oc3c(O)ccc(O)c3c(=O)c2c1O [Compound 8, gartanin]', 1.0),
  ('COc1c(O)cc2oc3cc(O)c(CC=C(C)C)c(O)c3c(=O)c2c1CC=C(C)C [Compound 10, α-mangostin]', 1.0);
